B1: Serine/threonine-protein kinase A-Raf, residues 21 to 89; numbered along this chain, P10398 (parent)
chain: VKVYLPNKQRTVVTVRDGMSVYDSLDKALKVRGLNQDCCVVYRLIKGRKTVTAWDTAIAPLDGEELIVE

- Variants of: B1
- test description: abundance fitness (aPCA) (normalised: wild type 0, dead -1); higher = more abundant; growth selection in yeast, the domain comes from the species named
- measurement parameters: Homo sapiens
Decision: abundance fitness compared against -0.1; not below it gives rule met, below it gives rule not met.

>  <residue codes>
VKVYLPNKQRTVVTVRDGMSVYDSLDKALKVRGLNQDCCVVYRLIKGRKTVTAWDTAIAPLDCEELIVE [G63C]

>  <answer label>
rule met

$$$$
>  <residue codes>
VKVPLPNKQRTVVTVRDGMSVYDSLDKALKVRGLNQDCCVVYRLIKGRKTVTAWDTAIAPLDGEELIVE [Y4P]

>  <answer label>
rule not met

$$$$
>  <residue codes>
VKVYLPYKQRTVVTVRDGMSVYDSLDKALKVRGLNQDCCVVYRLIKGRKTVTAWDTAIAPLDGEELIVE [N7Y]

>  <answer label>
rule not met

$$$$
>  <residue codes>
VKVYLPNKQRTVVTVRDGMSVYDSLDKALKVRGLNQDCCVVYRLIKGRKTVTAWDTAIAPLDGLELIVE [E64L]

>  <answer label>
rule met

$$$$
>  <residue codes>
VKVYLPNKQRTVVTVRDGMSVYDSLDKALKVRGLNQVCCVVYRLIKGRKTVTAWDTAIAPLDGEELIVE [D37V]

>  <answer label>
rule not met

$$$$
>  <residue codes>
VKVYLPNKQRTVVTVRDGMSVYDSLDKALKVRGLNQDCCVVYGLIKGRKTVTAWDTAIAPLDGEELIVE [R43G]

>  <answer label>
rule not met

$$$$
>  <residue codes>
VKVYLPNKQRTVVTVRDGMSVYDSTDKALKVRGLNQDCCVVYRLIKGRKTVTAWDTAIAPLDGEELIVE [L25T]

>  <answer label>
rule not met

$$$$
>  <residue codes>
VKVYLPNKQRTVVTVRDGMSVYDSLDKALKVRGLNQDCCVVYRLIKGRKTPTAWDTAIAPLDGEELIVE [V51P]

>  <answer label>
rule met

$$$$
>  <residue codes>
VKVYLPNKQRTVVTVRDGMSLYDSLDKALKVRGLNQDCCVVYRLIKGRKTVTAWDTAIAPLDGEELIVE [V21L]

>  <answer label>
rule met

$$$$
>  <residue codes>
VKVYLPNKQRTVVCVRDGMSVYDSLDKALKVRGLNQDCCVVYRLIKGRKTVTAWDTAIAPLDGEELIVE [T14C]

>  <answer label>
rule not met

$$$$
>  <residue codes>
VKVYLPNKQRTVVTVRDGMSVYDSLDKALKVRGLNQDCCVVYRLIKGRKTVTAWDTAIAPLDGVELIVE [E64V]

>  <answer label>
rule not met

$$$$
>  <residue codes>
VKVYLPNKQRTVVTVRSGMSVYDSLDKALKVRGLNQDCCVVYRLIKGRKTVTAWDTAIAPLDGEELIVE [D17S]

>  <answer label>
rule met

$$$$
>  <residue codes>
VKVYLPNKQRTVVTVRDGMSVYDSLDKALKVRGLNQCCCVVYRLIKGRKTVTAWDTAIAPLDGEELIVE [D37C]

>  <answer label>
rule not met

$$$$
>  <residue codes>
VKVYLPNKQRTVVTVNDGMSVYDSLDKALKVRGLNQDCCVVYRLIKGRKTVTAWDTAIAPLDGEELIVE [R16N]

>  <answer label>
rule not met

$$$$
>  <residue codes>
VKVYLPNKQRTVVTVRDGMSVYDSLDKALKVHGLNQDCCVVYRLIKGRKTVTAWDTAIAPLDGEELIVE [R32H]

>  <answer label>
rule met

$$$$
>  <residue codes>
VKVYLPNKQRTVVTVRDGMSVYDSLDKALKVRGLNQDCIVVYRLIKGRKTVTAWDTAIAPLDGEELIVE [C39I]

>  <answer label>
rule not met

$$$$
>  <residue codes>
VKVYLPNKQRTVVTVRDGMSVYDSLDKALQVRGLNQDCCVVYRLIKGRKTVTAWDTAIAPLDGEELIVE [K30Q]

>  <answer label>
rule not met

$$$$
>  <residue codes>
VKVYLPNKQRTVVTVRDGMSVYDSLDKALKVRGLNQDCCVVYRLIKGRKTVTAWDTAIAPLDGEELIVL [E69L]

>  <answer label>
rule not met

$$$$
>  <residue codes>
VKVYLPNKQRTVVTSRDGMSVYDSLDKALKVRGLNQDCCVVYRLIKGRKTVTAWDTAIAPLDGEELIVE [V15S]

>  <answer label>
rule not met

$$$$
>  <residue codes>
VKVYLPNKQRTVVTVRDGMSVYDSFDKALKVRGLNQDCCVVYRLIKGRKTVTAWDTAIAPLDGEELIVE [L25F]

>  <answer label>
rule not met

$$$$
>  <residue codes>
VMVYLPNKQRTVVTVRDGMSVYDSLDKALKVRGLNQDCCVVYRLIKGRKTVTAWDTAIAPLDGEELIVE [K2M]

>  <answer label>
rule not met

$$$$
>  <residue codes>
VKVYLPNKQREVVTVRDGMSVYDSLDKALKVRGLNQDCCVVYRLIKGRKTVTAWDTAIAPLDGEELIVE [T11E]

>  <answer label>
rule not met

$$$$
>  <residue codes>
VKVYLPNKQRTVVTVRDGMSVYHSLDKALKVRGLNQDCCVVYRLIKGRKTVTAWDTAIAPLDGEELIVE [D23H]

>  <answer label>
rule not met

$$$$
>  <residue codes>
VKVYLPNKQRTVVTVRDGMSVYDSLDKALKVRGLNQDCCVVYRLIKGRKTVTAWDTAIAPLLGEELIVE [D62L]

>  <answer label>
rule met

$$$$
>  <residue codes>
VKVYLPNKQRTVVTVRDGMSVYDSLDKALKVRGLNQDCCVVYRLIKGRKTVTAWDTAIAPLDGNELIVE [E64N]

>  <answer label>
rule met

$$$$
>  <residue codes>
VKVYLPNKQRTVVTVRMGMSVYDSLDKALKVRGLNQDCCVVYRLIKGRKTVTAWDTAIAPLDGEELIVE [D17M]

>  <answer label>
rule not met

$$$$
>  <residue codes>
VKVYLPNKQRTVVVVRDGMSVYDSLDKALKVRGLNQDCCVVYRLIKGRKTVTAWDTAIAPLDGEELIVE [T14V]

>  <answer label>
rule not met

$$$$
>  <residue codes>
VKVYLPNKQRTVVTVRDGMSVYDSLDKPLKVRGLNQDCCVVYRLIKGRKTVTAWDTAIAPLDGEELIVE [A28P]

>  <answer label>
rule not met

$$$$
>  <residue codes>
VKVYLPNKQRTVVTVRDGMSVYDSLDKALKVRGLNQDCCVVYVLIKGRKTVTAWDTAIAPLDGEELIVE [R43V]

>  <answer label>
rule not met

$$$$
>  <residue codes>
VKVYLPNKQRTVVTVRDGMSVYDSLDKALKVRGLNQDCCVVYRLIKGRKTVTAWDTAIAPLDFEELIVE [G63F]

>  <answer label>
rule not met

$$$$
>  <residue codes>
VKVYLPNKQRTVWTVRDGMSVYDSLDKALKVRGLNQDCCVVYRLIKGRKTVTAWDTAIAPLDGEELIVE [V13W]

>  <answer label>
rule not met

$$$$
>  <residue codes>
VKVALPNKQRTVVTVRDGMSVYDSLDKALKVRGLNQDCCVVYRLIKGRKTVTAWDTAIAPLDGEELIVE [Y4A]

>  <answer label>
rule not met

$$$$
>  <residue codes>
VKVYLPNKQRTVVTVRDGMSVYDSLDKALKVRGLNQDCCVVYRLIKGRKTVTAWDTAIAPLDAEELIVE [G63A]

>  <answer label>
rule not met

$$$$
>  <residue codes>
VYVYLPNKQRTVVTVRDGMSVYDSLDKALKVRGLNQDCCVVYRLIKGRKTVTAWDTAIAPLDGEELIVE [K2Y]

>  <answer label>
rule not met

$$$$
>  <residue codes>
VKVYLPNKQRTPVTVRDGMSVYDSLDKALKVRGLNQDCCVVYRLIKGRKTVTAWDTAIAPLDGEELIVE [V12P]

>  <answer label>
rule not met

$$$$
>  <residue codes>
VKVYLPNKQRTVVTVRDGMSVYDSLDKALRVRGLNQDCCVVYRLIKGRKTVTAWDTAIAPLDGEELIVE [K30R]

>  <answer label>
rule met

$$$$
>  <residue codes>
SKVYLPNKQRTVVTVRDGMSVYDSLDKALKVRGLNQDCCVVYRLIKGRKTVTAWDTAIAPLDGEELIVE [V1S]

>  <answer label>
rule not met

$$$$
>  <residue codes>
VKVYLPNKQRTVVTVRDRMSVYDSLDKALKVRGLNQDCCVVYRLIKGRKTVTAWDTAIAPLDGEELIVE [G18R]

>  <answer label>
rule not met

$$$$
>  <residue codes>
VKVYLPNKQRTWVTVRDGMSVYDSLDKALKVRGLNQDCCVVYRLIKGRKTVTAWDTAIAPLDGEELIVE [V12W]

>  <answer label>
rule met

$$$$
>  <residue codes>
VKVYLPNKQRTVVTVRDGMSVYDSLDKALKVRGLNQDCCVVYRLIKGRKTVTAWDTAIAPLDGSELIVE [E64S]

>  <answer label>
rule not met

$$$$
>  <residue codes>
VKVYLPNKQRTVVTVRDSMSVYDSLDKALKVRGLNQDCCVVYRLIKGRKTVTAWDTAIAPLDGEELIVE [G18S]

>  <answer label>
rule not met

$$$$
>  <residue codes>
VKVYLPNKQRTVVTVRDGMSVYDSLDKALKVRGLNQDCCVVYRLIKGRKTVTDWDTAIAPLDGEELIVE [A53D]

>  <answer label>
rule met

$$$$
>  <residue codes>
VKVYLPNKQRTVVTVRDGMSVYDSLDKALKVRGLNQDCCVVYRLIKGRKTVTAWDTAIAPLDGEVLIVE [E65V]

>  <answer label>
rule met

$$$$
>  <residue codes>
VKVYLPNKQRTVVTVRDGMSVYDSLDKALKVRGLNQDCCRVYRLIKGRKTVTAWDTAIAPLDGEELIVE [V40R]

>  <answer label>
rule not met

$$$$
>  <residue codes>
VKVYLPNKQRTVVTVRDGMSVYDSLDKALKVRGLNQDCCVVYRLIKGRKTVTAWDTAIAPLDSEELIVE [G63S]

>  <answer label>
rule not met

$$$$
>  <residue codes>
VKVYLPNKQRTVVTVRDGMSVYDSLDKALKVRGLNQDCCVVYRLIKGRSTVTAWDTAIAPLDGEELIVE [K49S]

>  <answer label>
rule not met

$$$$
